Molecular target: TYK2 (Homo sapiens)
Sequence (P29597 873-1187): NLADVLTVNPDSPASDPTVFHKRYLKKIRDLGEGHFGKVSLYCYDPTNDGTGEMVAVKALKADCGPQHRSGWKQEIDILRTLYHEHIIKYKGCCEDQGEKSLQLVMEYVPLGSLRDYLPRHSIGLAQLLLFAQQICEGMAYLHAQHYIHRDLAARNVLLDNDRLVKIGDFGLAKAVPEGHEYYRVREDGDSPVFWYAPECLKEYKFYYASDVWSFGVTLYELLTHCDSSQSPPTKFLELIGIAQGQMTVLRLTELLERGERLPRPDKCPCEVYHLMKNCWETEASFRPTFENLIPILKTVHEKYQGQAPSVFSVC
This listing pairs molecules with measured Ki.
PROPERTY_NAME: Ki (nM)

MOLECULE: CCN1CC[C@@H](n2nnc3cnc4[nH]ccc4c32)[C@@H](F)C1
VALUE_OBSERVED: 356

MOLECULE: O=C(Cc1nc2cnc3[nH]ccc3c2n1C1CCCOC1)N1CCS(=O)(=O)CC1 (racemic)
VALUE_OBSERVED: 113

MOLECULE: CS(=O)(=O)N[C@H]1CC[C@@H](n2cnc3cnc4[nH]ccc4c32)CC1
VALUE_OBSERVED: 38.5

MOLECULE: Cc1nc2cnc3[nH]ccc3c2n1[C@@H]1CCCN(Cc2ccccc2)C1
VALUE_OBSERVED: 171

MOLECULE: CC(O)c1nc2cnc3[nH]ccc3c2n1C1CCN(Cc2cccc(C#N)c2)CC1 (racemic)
VALUE_OBSERVED: 209

MOLECULE: COC[C@H]1CC[C@H](n2c([C@@H](C)O)nc3cnc4[nH]ccc4c32)CC1
VALUE_OBSERVED: 7.42

MOLECULE: CN(C)CCC(=O)N1CCC(n2cnc3cnc4[nH]ccc4c32)CC1
VALUE_OBSERVED: 1980

MOLECULE: C[C@@H](O)c1nc2cnc3[nH]ccc3c2n1C1CCC(NCC(F)F)CC1 (some centres unmarked)
VALUE_OBSERVED: 4.76

MOLECULE: O=C(NC1CCC(n2cnc3cnc4[nH]ccc4c32)CC1)c1cccnc1 (centres unmarked)
VALUE_OBSERVED: 44

MOLECULE: Cc1nc2cnc3[nH]ccc3c2n1[C@@H]1CCC[C@](C)(O)C1
VALUE_OBSERVED: 133

MOLECULE: CC(C)(C)OC(=O)N1CCC(n2c(C#N)nc3cnc4[nH]ccc4c32)CC1
VALUE_OBSERVED: 2930

MOLECULE: Cc1nc2ncccn2c1CN1CCC(n2c([C@@H](C)O)nc3cnc4[nH]ccc4c32)CC1
VALUE_OBSERVED: 223

MOLECULE: OCc1nc2cnc3[nH]ccc3c2n1C1CCN(Cc2ccccc2)CC1(F)F (racemic)
VALUE_OBSERVED: 5.63

MOLECULE: N#CCCN1CCC(n2c(COC3CCOCC3)nc3cnc4[nH]ccc4c32)CC1
VALUE_OBSERVED: 298

MOLECULE: CS(=O)(=O)NCc1nc2cnc3[nH]ccc3c2n1C1CCN(CC(F)(F)F)CC1
VALUE_OBSERVED: 118

MOLECULE: CC(C1CCCO1)n1cnc2cnc3[nH]ccc3c21 (single isomer, unassigned)
VALUE_OBSERVED: 173

MOLECULE: O=C(Cc1nc2cnc3[nH]ccc3c2n1C1CCCOC1)NC1CCC1 (racemic)
VALUE_OBSERVED: 306

// provenance: patent US8461328B2
